Data origin, for the record: ChEMBL document CHEMBL4414598

- target entity: Adenosine receptor A2b (Homo sapiens, UniProt P29275)
- Sequence (P29275 whole entry): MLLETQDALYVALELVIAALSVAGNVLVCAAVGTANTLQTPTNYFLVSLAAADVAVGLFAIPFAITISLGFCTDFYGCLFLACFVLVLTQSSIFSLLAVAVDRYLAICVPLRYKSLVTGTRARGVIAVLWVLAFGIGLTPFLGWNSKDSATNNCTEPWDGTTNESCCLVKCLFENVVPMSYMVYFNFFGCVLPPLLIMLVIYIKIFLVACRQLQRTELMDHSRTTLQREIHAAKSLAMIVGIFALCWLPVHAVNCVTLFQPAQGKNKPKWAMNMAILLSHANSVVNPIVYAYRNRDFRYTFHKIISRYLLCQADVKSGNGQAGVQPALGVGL
- protocol notes: Displacement of [3H]DPCPX from human recombinant A2B receptor expressed in human HEK293 cell membranes incubated for 30 mins by radioligand binding competition assay
pKi: −log10 of the molar value.
measure name: pKi

Some compounds with recorded pKi:
{"compound": "CC1=C(C(=O)OC(C)C(F)(F)F)C(c2ccco2)NC(=O)N1 (stereo in doubt; 14i-D2)", "pKi": 6.52}
{"compound": "CC1=C(C(=O)O[C@@H](C)C(F)(F)F)[C@@H](c2ccco2)n2c(nc3ccccc32)N1", "pKi": 8.06}

[1] CC(C)OC(=O)C1=C(C(F)(F)F)NC(=O)NC1c1ccco1 (racemic)
[2] CC1=C(C(=O)O[C@@H](C)C(F)(F)F)C(c2ccco2)n2c(nc3ccccc32)N1 (mixture of isomers)
Prompt: Between 1 and 2 , which one shows the smaller pKi number? Response format: the label of the selected entry.
Response: 1
